- TARGET OR TEST SYSTEM: human orexin-2 receptor (Homo sapiens, UniProt O43614)
- Construct: expressed in transfected cells; host or cells: CHO cells (G418 selection)
- Sequence (O43614 whole entry): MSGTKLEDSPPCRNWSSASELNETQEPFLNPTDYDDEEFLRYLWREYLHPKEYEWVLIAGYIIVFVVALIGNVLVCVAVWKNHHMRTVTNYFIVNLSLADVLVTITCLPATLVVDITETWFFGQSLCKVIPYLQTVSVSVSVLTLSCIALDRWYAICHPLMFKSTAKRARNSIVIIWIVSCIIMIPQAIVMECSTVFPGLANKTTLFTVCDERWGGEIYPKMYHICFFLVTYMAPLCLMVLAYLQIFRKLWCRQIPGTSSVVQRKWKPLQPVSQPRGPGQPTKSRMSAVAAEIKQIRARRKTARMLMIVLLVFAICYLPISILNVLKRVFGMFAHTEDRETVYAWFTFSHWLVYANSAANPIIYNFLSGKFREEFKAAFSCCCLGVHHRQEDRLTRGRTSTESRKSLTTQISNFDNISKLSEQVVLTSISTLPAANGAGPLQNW
- EXPERIMENTAL PROTOCOL: Intracellular calcium measurements (FLIPR), orexin receptor antagonistic activity, OX2
- Format: cell-based
- SETUP CONDITIONS: CHO cells expressing human orexin-2 receptor; 3 nM orexin-A; FLIPR2
Please respond with reported pIC50 for every item in the list.
Quick note: pIC50 means taking -log10 of the concentration in moles per liter.

Data request, read-out pIC50, for Cc1cccc(-c2sc(C)nc2C(=O)N2C[C@@H]3CC(C)C[C@@H]3[C@H]2CNC(=O)c2cc(Cl)ccn2)c1 (some centres unmarked)
7.32

Data request, read-out pIC50, for Cc1cccc(-c2sc(C)nc2C(=O)N2C[C@@H]3CC(C)C[C@@H]3[C@H]2CNC(=O)c2noc3ccccc23)c1 (some centres unmarked)
7.89

Data request, read-out pIC50, for Cc1cccc(-c2sc(C)nc2C(=O)N2C[C@@H]3CC(C)C[C@@H]3[C@H]2CNC(=O)c2cnc3sccn23)c1 (some centres unmarked)
8.05

Data request, read-out pIC50, for Cc1cccc(C(=O)NC[C@@H]2[C@H]3CC(C)C[C@H]3CN2C(=O)c2nc(C)sc2-c2cccc(C)c2)c1 (some centres unmarked)
7.33

Data request, read-out pIC50, for Cc1cccc(-c2sc(C)nc2C(=O)N2C[C@@H]3CC(C)C[C@@H]3[C@H]2CNC(=O)c2c(C)noc2C)c1 (some centres unmarked)
6.94
